B1: HDV Ribozyme (parent)
chain: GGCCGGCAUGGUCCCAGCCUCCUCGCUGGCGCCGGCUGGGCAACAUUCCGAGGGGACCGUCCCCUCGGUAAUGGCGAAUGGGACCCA

Variants of: B1
assay-summary: self-cleavage, relative activity (ratio to wild type); higher = more cleavage; co-transcriptional
Below, each entry is listed alongside its reported self-cleavage.
metric: self-cleavage

- G6C C63A: 0.582
- U27A G35A: 0.369
- G5C G39A: 0
- G80U G82U: 0.147
- C66A U72G: 0.332
- U12A C33U: 0.44
- C75G G81C: 0.0831
- A8U U47A: 0.767
- C19G G35U: 0.119
- C26A C44A: 0.914
- U46A G50C: 0.597
